From: ChEMBL document CHEMBL3774316

STUDY_SYSTEM: Aminopeptidase N (Sus scrofa, UniProt P15145)
Sequence (P15145 whole entry): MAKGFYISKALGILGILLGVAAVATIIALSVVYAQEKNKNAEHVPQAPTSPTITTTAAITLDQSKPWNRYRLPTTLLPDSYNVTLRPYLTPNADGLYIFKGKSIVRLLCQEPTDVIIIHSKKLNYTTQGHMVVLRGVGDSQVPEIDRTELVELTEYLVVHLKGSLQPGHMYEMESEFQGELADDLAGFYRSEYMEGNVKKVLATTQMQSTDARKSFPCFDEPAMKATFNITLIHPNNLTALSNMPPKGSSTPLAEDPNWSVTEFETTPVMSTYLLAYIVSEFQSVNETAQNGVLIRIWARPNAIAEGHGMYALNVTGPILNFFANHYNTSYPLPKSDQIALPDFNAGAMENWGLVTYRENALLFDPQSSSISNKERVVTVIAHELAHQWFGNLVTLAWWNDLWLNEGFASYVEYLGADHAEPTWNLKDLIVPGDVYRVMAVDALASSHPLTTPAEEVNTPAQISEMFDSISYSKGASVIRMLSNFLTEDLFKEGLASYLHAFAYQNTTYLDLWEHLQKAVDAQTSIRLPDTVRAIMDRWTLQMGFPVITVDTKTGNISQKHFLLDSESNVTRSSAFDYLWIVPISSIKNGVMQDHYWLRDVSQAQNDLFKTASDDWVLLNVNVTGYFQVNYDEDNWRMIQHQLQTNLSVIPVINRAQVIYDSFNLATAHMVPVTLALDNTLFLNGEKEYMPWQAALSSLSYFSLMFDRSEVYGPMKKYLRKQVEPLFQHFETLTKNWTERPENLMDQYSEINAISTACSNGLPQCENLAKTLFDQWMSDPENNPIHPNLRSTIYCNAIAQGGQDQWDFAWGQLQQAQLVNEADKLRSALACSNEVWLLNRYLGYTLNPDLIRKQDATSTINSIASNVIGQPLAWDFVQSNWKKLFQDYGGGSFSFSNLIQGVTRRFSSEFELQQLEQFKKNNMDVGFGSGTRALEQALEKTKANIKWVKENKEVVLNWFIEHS
List of IC50 values.

[
  {
    "STRUCTURE_SMILES_STRING": "Cc1ccc(S(=O)(=O)N2CC3(C[C@H]2C(=O)N/N=C/c2ccccc2Br)SCCS3)cc1",
    "STUDY_SYSTEM": "Aminopeptidase N (Sus scrofa, UniProt P15145)",
    "IC50": "> 1000 µM"
  },
  {
    "STRUCTURE_SMILES_STRING": "Cc1ccc(S(=O)(=O)N2CC3(C[C@H]2C(=O)N/N=C/c2cccc([N+](=O)[O-])c2)SCCS3)cc1",
    "STUDY_SYSTEM": "Aminopeptidase N (Sus scrofa, UniProt P15145)",
    "IC50": "> 1000 µM"
  },
  {
    "STRUCTURE_SMILES_STRING": "Cc1ccc(/C=N/NC(=O)Cn2c(=O)c(C)nc3ccccc32)cc1",
    "STUDY_SYSTEM": "Aminopeptidase N (Sus scrofa, UniProt P15145)",
    "IC50": "307 µM"
  },
  {
    "STRUCTURE_SMILES_STRING": "Cc1nc2ccccc2n(CC(=O)N/N=C/Cc2ccccc2)c1=O",
    "STUDY_SYSTEM": "Aminopeptidase N (Sus scrofa, UniProt P15145)",
    "IC50": "223 µM"
  }
]
